Measured GI50 by item
# Test system: BT-549
# protocol_details: NCI tumour cell line growth inhibition, 48 h
Calls of active or inactive are those of the source. No stated cut-off is given here; in the data, active = GI50 up to about 1.1 µM and inactive = higher.

compound	GI50
CC(=O)Oc1ccc2c(c1)CC[C@@H]1C2CC[C@]2(C)C(=O)NC(=O)CC12 (some centres not stated)	> 100 µM (inactive)
C=C(C)[C@@H]1CC[C@@H](C)[C@](O)([C@@H]2C[C@@H]([C@H](COC(=O)c3ccccc3)OC(=O)c3ccccc3)OC2=O)C1	> 100 µM (inactive)
CC(=O)NCC1OC2COC(c3ccccc3)OC2C(NC(=O)c2ccccc2)C1OC(=O)c1ccccc1 (configuration not stated)	> 100 µM (inactive)
OC(c1cc(-c2ccc(Cl)cc2)nc2ccccc12)C1CCCCN1 (configuration not stated)	5.09 µM (inactive)
O=C(OCC(OC(=O)c1ccccc1)C(OC(=O)c1ccccc1)C(OC(=O)c1ccccc1)c1cnn(-c2ccccc2)n1)c1ccccc1 (configuration not stated)	> 100 µM (inactive)
CC(=O)O[C@@H]1[C@@H](O)C2=C3[C@]4(C)[C@@H]1C(C)(C)C(=O)C[C@@H]4[C@]3(O)[C@H](OC(C)=O)[C@@]1(C[C@@H]1C)C2=O	16.1 µM (inactive)
CC(C)(Br)C(=O)C(Br)Br	4.9 µM (inactive)
O=C(c1ccc(Cl)cc1)N(Cc1cccnc1)C(=S)N(Cc1cccnc1)C(=O)c1ccc(Cl)cc1	23.7 µM (inactive)
Cc1ccc(S(=O)(=O)NNC(C[N+](=O)[O-])c2ccccc2)cc1 (configuration not stated)	15.6 µM (inactive)
CCOC(=O)c1c(-c2ccc(Cl)cc2)c(C#N)c(=S)n(C2OC(CO)C(O)C(O)C2O)c1-c1ccccc1 (configuration not stated)	29.4 µM (inactive)
CCC1(O)CC(OC2CC(N(C)C)C(OC3CC(O)C(OC4CCC(=O)C(C)O4)C(C)O3)C(C)O2)c2c(cc3c(c2O)C(=O)c2c(O)ccc(O)c2C3=O)C1C(=O)OC (configuration not stated)	< 0.0152 µM (active)
C[n+]1c2ccccc2c(C(=O)Nc2ccc(S(=O)(=O)Nc3ncccn3)cc2)c2ccccc21	45.1 µM (inactive)

----------
# Test system: SF-268
# protocol_details: NCI tumour cell line growth inhibition, 48 h
Calls of active or inactive are those of the source. No stated cut-off is given here; in the data, active = GI50 up to about 1.1 µM and inactive = higher.
Outcome codes: YES for active, NO for inactive

molecule	test_system	assigned_label
OC[C@H]1CC(c2nn[nH]n2)[C@H](O)[C@@H]1O (stereo partly specified)	SF-268	NO
CC1=C(C(=O)c2ccccc2)C23C(=O)N(c4ccccc4)C(=O)C2=C(O)C=CC3(O)N1 (stereo unspecified)	SF-268	NO
CCOC(=O)CN.CCOC(=O)Nc1ccc(S(=O)(=O)OC)cc1.CCOC(=O)Nc1ccc(S(=O)(=O)OC)cc1	SF-268	NO
CC12OC3CC(O1)C1(C=O)C4CCC5(C)C(c6ccc(=O)oc6)CCC5(O)C4CCC1(C3)O2 (stereo unspecified)	SF-268	YES
COCn1cnc2c(=O)n(-c3ccc(OC)cc3)c(=S)n(-c3ccc(OC)cc3)c21	SF-268	NO
Clc1ccc2c(c1)[nH]c1c2nc2ccccn21	SF-268	NO
Nc1cc[nH]c(=O)n1	SF-268	NO
O=C1N[C@@H]2C(=C[C@H](O)[C@@H](O)[C@H]2O)c2cc3c(c(O)c21)OCO3	SF-268	YES
CCCCc1ccc(Nc2cc(=O)n(C)c(=O)[nH]2)cc1	SF-268	NO
O=C1NC(=O)c2ccccc2/C1=C/c1ccc2c(c1)OCO2	SF-268	NO
Cc1ccc(O)c(C(=O)CCCC(=O)c2cc(C)ccc2O)c1	SF-268	NO

----------
# System: RXF 393
# protocol_details: NCI tumour cell line growth inhibition, 48 h
Calls of active or inactive are those of the source. Cut-off read from the data, not from the text of the source: active = GI50 up to about 1.1 µM and inactive = higher.
Outcome codes: active, inactive

compound	assigned_label
FC(F)(F)c1cc(C2SCc3nc4ccccc4n32)cc(C(F)(F)F)c1 (stereo not given)	inactive
Nc1ccn(C2CCC(CO)O2)c(=O)n1 (stereo not given)	inactive
COC(=O)NC(C(F)(F)F)(C(F)(F)F)P1(=O)OCCCO1	inactive
COC(=O)C(=O)Cc1nc2ccccc2s1	inactive
CC(=O)Nc1ccc(S(=O)(=O)c2nnc(NC(C)=O)s2)cc1	inactive
COC(=O)C(/C(=N\O)C(=O)Nc1cccc(Cl)c1C)c1cnc2ccccc2n1 (stereo not given)	inactive
CC(=O)CC(=O)CCC(=O)O	inactive
CN1N=C(c2ccncc2)OC1c1cccc(C(F)(F)F)c1 (stereo not given)	inactive
N#Cc1c(-c2ccc([N+](=O)[O-])cc2)c2c([nH]c1=O)-c1ccccc1CCC2	inactive
Cc1ccc(S(=O)(=O)c2scc(-c3ccccc3)c2C)cc1	inactive
COc1cc(/C=C2\CC(C)C/C(=C\c3ccc(O)c(OC)c3)C2=O)ccc1O (stereo not given)	inactive
O=C(O)C/C(=C\c1ccco1)C(=O)O	inactive
CCCCc1ccc(Nc2cc(=O)n(C)c(=O)[nH]2)cc1	inactive
c1ccc2cc(NCNc3ccc4ccccc4c3)ccc2c1	inactive
NC1CCCCC1.O=C(CP(=O)(O)O)NC(CC(=O)OCc1ccccc1)C(=O)OCc1ccccc1 (stereo not given)	inactive
O=C(CC(C(=O)c1cccs1)c1ccccc1)c1ccccc1O (stereo not given)	inactive
COc1ccc(Nc2cc(O)nc(O)n2)cc1	inactive
Cc1ccc(-c2c(C#N)c(-c3ccc([N+](=O)[O-])cc3)c(C#N)c(=O)n2NS(=O)(=O)c2ccc(C)cc2)cc1	inactive
S=c1sscc1N1CCSc2ssc(=S)c21	inactive
O=C(Nc1ccc(Cl)cc1Cl)C(=O)Nn1c(S)nc2ccccc2c1=O	inactive
COc1cc(OC)cc(Oc2nc3ccccc3nc2C(F)(F)F)c1	inactive
O=[PH](O)c1cccs1	inactive
O=c1[nH]c(=O)n(C2OC(CO)C(O)C2O)cc1OCCCc1ccccc1 (stereo not given)	inactive
Cc1cc(C(C)(C)C)cc(CNC2CCCCC2)c1O	active
O=C1C=CC(=O)c2c1ccc1c3ccccc3n(CCCCCn3c4ccccc4c4ccc5c(c43)C(=O)C=CC5=O)c21	inactive
CCCCCCCCC/C=C/C=C/C(=O)NCC(=O)NC1C(O)C(O)C(Nc2ncnc3[nH]cnc23)OC1C(O)CO (stereo not given)	active
CC(=O)Oc1ccc(-c2nnc(-c3ccc(OC(C)=O)cc3)nn2)cc1	inactive
CC1(CCCC2(C)CCNC2=O)OCCO1 (stereo not given)	inactive
CC(C)N(Cc1ccccc1)S(=O)(=O)c1nc(C(C)(C)C)n[nH]1	inactive
Oc1c(/N=N\c2ccccc2)c2cccc3ccc4cccc1c4c32	inactive
CC(C(=O)c1ccc(O)cc1)C1(O)C(=O)Nc2c(Cl)cc(Cl)cc21 (stereo not given)	inactive
Cc1ccc2c(=O)c(-c3nnsn3)c[nH]c2n1	inactive
N=c1nc(N)nc(N)n1-c1ccc(S(N)(=O)=O)cc1	inactive
CCCC(=O)NC(Nc1ccc(S(=O)(=O)Nc2nc(C)cc(C)n2)cc1)(C(F)(F)F)C(F)(F)F	inactive
O=C1C=CC(S(=O)(=O)C2=C/C(=C/Nc3ccc(Cl)cc3)C(=O)C=C2)=C/C1=C/Nc1ccc(Cl)cc1	inactive

----------
# Tested on: U-251
# protocol_details: NCI tumour cell line growth inhibition, 48 h
Calls of active or inactive are those of the source. Rule as the data show it: active = GI50 up to about 1.1 µM and inactive = higher.
Outcome codes: class 1 for active, class 0 for inactive

compound	assigned_label
CC(C)(C)c1cc2c3c(c1)C(C(F)(F)F)(C(F)(F)F)O[Te]3(C)OC2(C(F)(F)F)C(F)(F)F	class 0
COc1cc(OC)cc(Oc2nc3ccccc3nc2C(F)(F)F)c1	class 0
COc1ccc(OCC(=N/NC(=O)c2ccncc2)/N=C/c2ccncc2)cc1	class 0
NS(=O)(=O)c1ccc(NNc2c3ccccc3nc3ccccc23)cc1	class 0
CC[C@]1(O)C[C@H]2CN(CCc3c([nH]c4ccccc34)[C@@](C(=O)OC)(c3cc4c(cc3OC)N(C)[C@H]3[C@@](O)(C(=O)OC)[C@H](OC(C)=O)[C@]5(CC)C=CCN6CC[C@]43[C@@H]65)C2)C1	class 1
NC1=NS(=O)(=O)Nc2nc(-c3ccccc3)c(-c3ccccc3)nc21	class 0
CCOC(=O)C=C1CCC2(CC1)OCCO2	class 0
CC(Oc1ccc(OCC2CCCCC2)cc1)C(=O)NCc1ccco1 (stereo not drawn)	class 0

----------
Measured GI50 by item
# Tested on: LOX IMVI
# protocol_details: NCI tumour cell line growth inhibition, 48 h
Activity calls are given as the source filed them. No stated cut-off is given here; in the data, active = GI50 up to about 1.1 µM and inactive = higher.
readout_label: GI50

molecule	recorded_result
Cc1ccc(S(=O)(=O)NCCCSCCSCCCN)cc1	> 100 µM (inactive)
CCOC(=O)[C@H]1Nc2ccc(C)cc2C2c3ccccc3CC21 (stereo partly specified)	> 100 µM (inactive)
O=[PH](O)c1cccs1	> 100 µM (inactive)
CNNC1=NS(=O)(=O)c2cc(C(=O)OC)c(Cl)cc2S1	> 10 µM (inactive)
Cn1c(N)[n+](C(=O)OCc2ccccc2)c(=O)c2c1ncn2C(=O)OCc1ccccc1	> 100 µM (inactive)
Nc1ccn(C2CCC(CO)O2)c(=O)n1 (stereo unspecified)	> 100 µM (inactive)

Origin of the recorded values: ChEMBL document CHEMBL1201862
